The reported measurements were obtained from PubChem BioAssay (Tox21).

# Tested target: Cytochrome P450 2D6 (Homo sapiens) (UniProt P10635)
# Sequence (P10635 whole entry, looked up): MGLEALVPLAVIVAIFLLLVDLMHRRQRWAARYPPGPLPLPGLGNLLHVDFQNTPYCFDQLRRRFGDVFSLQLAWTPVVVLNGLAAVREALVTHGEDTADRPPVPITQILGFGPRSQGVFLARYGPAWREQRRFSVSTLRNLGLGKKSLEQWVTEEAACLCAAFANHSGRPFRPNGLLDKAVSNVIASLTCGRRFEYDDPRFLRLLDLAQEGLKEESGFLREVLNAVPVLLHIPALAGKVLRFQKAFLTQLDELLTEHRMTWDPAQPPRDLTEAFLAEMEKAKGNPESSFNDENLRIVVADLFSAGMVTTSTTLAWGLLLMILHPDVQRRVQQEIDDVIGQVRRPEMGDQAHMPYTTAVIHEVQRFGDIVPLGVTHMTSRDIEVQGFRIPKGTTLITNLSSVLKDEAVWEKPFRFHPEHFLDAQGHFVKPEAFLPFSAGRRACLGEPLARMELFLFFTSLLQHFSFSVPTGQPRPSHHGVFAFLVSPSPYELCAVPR
# Protocol summary: Cytochrome P450 Family 2 Subfamily D Member 6 (CYP2D6) small molecule antagonists: luciferase reporter qHTS assay (AID 1671196); also: nearly all actives have a fitted effect of over 50% in size
# Stated conditions: P450-Glo CYP2D6 enzyme assay, luciferin luminescence, 1 h; series mostly up to 115 µM
Results filed as inconclusive are left out. Calls of active or inactive are those of the source. Calls follow the shape of the dose curve; as a rule, active = well fitted inhibition curve with a large enough effect in the repeat runs; inconclusive = weak or mixed curves; inactive = no such curve, though single readings can be large or run the other way.
Bench note: report the call from y for active, n for inactive

Consider the following illustrative entries.
S=C=NCCc1ccccc1 : y
Brc1cccc(-c2ccccc2)c1 : n
CCOP(=O)(Sc1ccccc1)Sc1ccccc1 : y

Next up:
Req: What is the recorded call for this compound in the test? "C=CCOC(=O)c1ccccc1N"
Resp: y

---

# Protocol summary: A CellTox Green Cytotoxicity Assay to monitor cytotoxicity in HepG2 cells - 40 hour (AID 1224879); also: nearly all actives have a fitted effect of over 40% in size
# Stated conditions: CellTox Green fluorescence; series mostly up to 76.8 µM
Results filed as inconclusive are left out. Calls of active or inactive are those of the source. Calls come from the whole dose curve; as a rule, active = well fitted activation curve with a large enough effect in the repeat runs; inconclusive = weak or mixed curves; inactive = flat fitted curve, though single readings scatter.
Bench note: report the call from active, inactive

Consider the following illustrative entries.
OCC(Br)CBr (stereo not drawn) : inactive
CC(C)C(Br)C(=O)NC(N)=O (stereo not drawn) : inactive
O=C(O)[C@H](O)[C@@H](O)C(=O)O : inactive
CCOP(=S)(OCC)Oc1cc(C)nc(N(CC)CC)n1 : inactive
CNC(=O)/C=C(\C)OP(=O)(OC)OC : inactive
COC(=O)/C=C(\C)OP(=O)(OC)OC : inactive

Req: What is the recorded call for this compound in the test? "CCCCCCCc1ccc(O)cc1"
Resp: active

Req: What is the recorded call for this compound in the test? CC1(C)C(C=C(Cl)Cl)C1C(=O)OC(C#N)c1ccc(F)c(Oc2ccccc2)c1 (stereo not drawn)
Resp: inactive

---

# Protocol summary: A CellTox Green Cytotoxicity Assay to monitor cytotoxicity in HEK293 cells - 40 hour (AID 1224871); also: nearly all actives have a fitted effect of over 45% in size; also: potency is read from the fitted curve at half-maximal effect
# Stated conditions: CellTox Green fluorescence; series mostly up to 76.8 µM
Inconclusive results are not listed. Activity calls are given as the source filed them. Calls follow the shape of the dose curve; as a rule, active = well fitted activation curve with a large enough effect in the repeat runs; inconclusive = weak or mixed curves; inactive = flat fitted curve, though single readings scatter.
Outcome measure: Potency

[C-]1=CC=CC1.[Cl][Zr+2][Cl].c1cc[cH-]c1 : inactive
COC(=O)c1ccccc1S(=O)(=O)NC(=O)Nc1nc(C)nc(OC)n1 : inactive
C#CCO : inactive
O=[N+]([O-])c1ccc(Cl)c(Cl)c1Cl : 34.2 µM (active)
CC(C)NCC(O)c1ccccc1Cl (stereo not given) : inactive
CC(=O)[O-].CC(=O)[O-].O.O.O.[Pb+2] : inactive
O=S(=O)(O)F : inactive
Cc1c([N+](=O)[O-])c(C)c([N+](=O)[O-])c(C(C)(C)C)c1[N+](=O)[O-] : inactive
CN(C)CCc1c[nH]c2ccccc12 : inactive
C=C(C)C(=O)[O][Sn]([CH2]CCC)([CH2]CCC)[CH2]CCC : 0.436 µM (active)

Would you mind listing Potency for each of the following compounds?
1. CCOP(=S)(OCC)Oc1cc(C)nc(N(CC)CC)n1
2. O=C(Nc1ccc(F)cc1F)c1cccnc1Oc1cccc(C(F)(F)F)c1

Resp:
1. inactive
2. 53.8 µM (active)

Would you mind listing Potency for each of the following compounds?
1. CNC(=O)Oc1cc(C)cc(C(C)C)c1
2. COC(=O)/C=C(\C)OP(=O)(OC)OC
3. NC(=O)C(Cl)Cl
4. Oc1ccc(Cl)c(Cl)c1
5. CCN1CCC2(CC1)COc1cc3c(cc12)N(C(=O)c1ccc(-c2ccc(-c4nnc(C)o4)cc2C)cc1)CC3

Resp:
1: inactive; 2: inactive; 3: inactive; 4: inactive; 5: 40.3 µM (active)

Would you mind listing Potency for each of the following compounds?
1. CCC(C)Nc1c([N+](=O)[O-])cc(C(C)(C)C)cc1[N+](=O)[O-] (stereo not given)
2. COP(=O)(OC)Oc1ccc([N+](=O)[O-])cc1

Resp:
["inactive", "inactive"]
